The origin of these recorded values is paper PMC8642242.

biological target: SARS-CoV-2 S protein, full length (IL1/2020), on 293F-Spike-S2A cells (SARS-CoV-2, USA/IL1/2020 (S identical …, UniProt P0DTC2)); assay: flow cytometry on cells; details: one partner purified
parameter: binding result

INSERT INTO assay_data (binder, result) VALUES
  ('WRAIR-2039 LALA-PG (human IgG1 with the triple Fc mutation LALA-PG) (antibody, V domains shown) VH: QVQLVQSGAEVKKPGASVKVSCKVSGYMLIELSMHWVRQAPGKGLEWMGGFDPEDAETIYAQEFQGRVTMTEDTSTDTAYMELSSLRSEDTAVYYCTTGPAVTNRPADYWGPGTLVTVSS VL: QSVLTQPPSVSGAPGQRVTISCTGSSSNIGASYDVHWYQQLPGTAPKLLIYANSNRPSGVPDRFSGSKSGTSASLAITGLQAEDEADYYCQSYDSSLSYSVVFGGGTKLTVL', 'binds'),
  ('WRAIR-2173 LALA-PG (human IgG1 with the triple Fc mutation LALA-PG) (antibody, V domains shown) VH: QVQLQESGPGLVKPSETLSLTCSVSGDSISSSDYSWGWIRQPPGKGLEWIGTIYYIKNTYYNPSLRSRVTLSVDTSKNLFSLKLSSVTAADTAVYYCARERPPFDVVVVPAARPYNWFDPWGLGTLVIVSS VL: QSVLMQPPSVSGAPGQRVTISCTGSSSNIGAGYDVHWYQQLPGTAPKLLIYGNNNRPSGVPDRFSGSKSGTSASLAITGLQADDEADYYCQSYDSSLSGSKVFGGGTKLTVL', 'binds'),
  ('WRAIR-2004 LALA-PG (human IgG1 with the triple Fc mutation LALA-PG) (antibody, V domains shown) VH: QVQLVQSGAEVKKPGASVKVSCKASGYTFTGYYMHWVRQAPGQGLEWMGRINPSSGGTNYAQKFQGRVTMTRDTSISTAYMELSSLRSDDTAVYYCATDGDDGENWFDPWGQGTLVIVSS VL: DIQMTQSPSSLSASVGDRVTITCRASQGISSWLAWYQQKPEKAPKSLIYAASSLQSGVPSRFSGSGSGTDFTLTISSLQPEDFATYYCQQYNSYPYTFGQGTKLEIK', 'binds'),
  ('WRAIR-2025 LALA-PG (human IgG1 with the triple Fc mutation LALA-PG) (antibody, V domains shown) VH: QVHLVQSGAEVKKPGASVKVSCKVSGYTLVELSVHWVRQAPAKGLEWIGGFDPEDGETIYAQKFQGRVTMTEDTSTDTAYMELTNLRSEDTAVYYCVTSQPFVSPNWFDPWGQGTLVTVSS VL: QSALTQPASVSGSPGQSITISCTGTSRDVGAYNYVSWYQQHPGKAPKLMIYEVTTRPSGVSNRFSGSKSGNTASLTISGLQAEDEADYYCSSYTGSRTLVFGTGTKVTVL', 'binds');
